Catalogue of Emax values
- measured.on: UniProtKB P28335
- Sequence (P28335 33-458): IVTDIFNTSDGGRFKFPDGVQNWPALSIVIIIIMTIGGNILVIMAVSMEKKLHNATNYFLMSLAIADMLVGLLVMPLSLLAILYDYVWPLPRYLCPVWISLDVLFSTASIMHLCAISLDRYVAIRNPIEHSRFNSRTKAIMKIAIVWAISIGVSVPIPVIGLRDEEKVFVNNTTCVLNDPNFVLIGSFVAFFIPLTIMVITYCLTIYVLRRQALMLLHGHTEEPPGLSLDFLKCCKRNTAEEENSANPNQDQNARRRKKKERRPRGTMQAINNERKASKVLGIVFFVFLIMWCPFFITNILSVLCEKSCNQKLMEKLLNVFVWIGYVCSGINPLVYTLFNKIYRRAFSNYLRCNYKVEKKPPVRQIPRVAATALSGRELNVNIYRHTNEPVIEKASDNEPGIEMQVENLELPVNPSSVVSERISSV
- test.summary: Human 5-HT2C functional high throughput screening assay in CHO-K1 cells (calcium flux)
- Assay type: cell-based
- Design: expressed in transfected cells; host or cells: CHO-K1 cells
- assay.conditions: CHO-K1; 5-HT2C; maximum functional response as percentage relative to the effect of serotonin

{"compound": "c1ccc2c(c1)OCC[C@H]1CNC[C@H]21 (relative stereo) [Example 94]", "Emax": "> 120%"}
{"compound": "CC(C)COc1ccc2c(c1)C(=O)NC[C@@H]1CNC[C@@H]21 (relative stereo) [Example 166]", "Emax": "> 120%"}
{"compound": "O=C1NC[C@@H]2CNC[C@H]2c2ncccc21 (relative stereo)", "Emax": "> 120%"}
{"compound": "c1cnc2c(c1)C1CNCC1CCO2 (mixture of isomers)", "Emax": "> 120%"}
{"compound": "CN1C[C@@H]2CCCc3ccccc3[C@@H]2C1 (relative stereo)", "Emax": "> 120%"}
{"compound": "O=C1NC[C@@H]2CNC[C@H]2c2c(F)cccc21 (relative stereo)", "Emax": "> 120%"}
{"compound": "c1cnc2c(c1)[C@@H]1CNC[C@H]1CCO2 (relative stereo)", "Emax": "> 120%"}
{"compound": "CCC(C)Oc1ccc2c(c1)C(=O)NC[C@@H]1CNC[C@@H]21 (relative stereo)", "Emax": "> 120%"}
{"compound": "Clc1ccc2c(c1)[C@H]1CNC[C@@H]1CCO2 [Example 233]", "Emax": "> 120%"}
{"compound": "Fc1ccc2c(c1)OCC[C@H]1CNC[C@H]21 (relative stereo)", "Emax": "> 120%"}
{"compound": "CN1C[C@H]2CNC(=O)c3cc(OCC4CCCCC4)ccc3[C@@H]2C1 (relative stereo)", "Emax": "> 120%"}
{"compound": "CN1C[C@H]2CNC(=O)c3cc(-c4cccnc4)ccc3[C@@H]2C1 (relative stereo)", "Emax": "> 120%"}
{"compound": "O=S(=O)(c1ccc(Br)s1)N1Cc2cccnc2[C@@H]2CNC[C@H]2C1 (relative stereo)", "Emax": "80%"}
{"compound": "c1ccc2c(c1)NCC[C@@H]1CNC[C@@H]21 (relative stereo)", "Emax": "95%"}
{"compound": "COc1ccc2c(c1)[C@H]1CNC[C@@H]1CCC2 (relative stereo)", "Emax": "> 120%"}
{"compound": "O=C1NC[C@@H]2CNC[C@H]2c2cc3c(cc21)CCCC3 (relative stereo)", "Emax": "100%"}
{"compound": "c1ccc(CN2C[C@H]3CCOc4ncccc4[C@@H]3C2)cc1 (relative stereo)", "Emax": "90%"}
{"compound": "O=S(=O)(c1ccccc1F)N1Cc2cccnc2[C@@H]2CNC[C@H]2C1 (relative stereo)", "Emax": "80%"}
{"compound": "Clc1cc(Br)c2c(c1)[C@H]1CNC[C@@H]1CCO2 (relative stereo)", "Emax": "90%"}
{"compound": "O=S(=O)(c1cccc(Cl)c1)N1Cc2cccnc2[C@@H]2CNC[C@H]2C1 (relative stereo)", "Emax": "80%"}

Ref: patent US8846951B2
